- study_conditions: buffer; pH 7.4; 200.0 µM
metric: solubility kinetic (µg/mL)
Answers are plain numbers, in µg/mL.

compound | units_symbol | solubility kinetic
Cc1ccc(S(=O)(=O)N2CC(C)C(=O)CC2C)cc1 (configuration not stated) | µg/mL | 38.6
CC1CCCC(C)N1C(=O)COc1cccc(Oc2ccccc2)c1 (configuration not stated) | µg/mL | 20.8
COc1ccccc1NS(=O)(=O)c1cc(NC(=O)COc2ccccc2F)ccc1N1CCOCC1 | µg/mL | 2.4
CCOc1ccc(CNCc2ccccc2Cl)cc1.Cl | µg/mL | 31.6
CSc1ccc(C2Nc3cccc4cccc(c34)N2)cc1 | µg/mL | 2.4

Would you kindly look at the next entry?
Q: For the compound shown here, COc1ccc(NC(=S)N2CCC(c3ccc(C)cc3)C2)cc1 (configuration not stated) , give the reported solubility kinetic.
A: 0.6

###

- study_conditions: buffer; pH 7.4; 200.0 µM
Classify by solubility kinetic. Ranges: low: < 10 µg/mL; intermediate: ≥ 10 µg/mL and < 30 µg/mL; high: ≥ 30 µg/mL

Solved cases (3 shown):
compound | label_value
O=C(/C=C/NCc1cccnc1)C(F)(F)C(F)(F)F | high
OC(COc1ccccc1)CN1CCCC1 (stereo not given) | high
COc1cc2c(C(=O)NCCN(C)C)cn(CC(C)C)c(=O)c2cc1OC | high

Q: Lab note: which band did CCOC(=O)C1(C)NC(c2ccco2)C2C(=O)N(CC)C(=O)C21 (stereo not given) land in?
A: high

Q: Lab note: which band did Cc1cc(=O)c(C(=O)O)nn1-c1ccccc1Cl land in?
A: high

Q: Lab note: which band did O=C(NCCC1=CCCCC1)c1cc2ccccc2oc1=O land in?
A: low

###

- study_conditions: buffer; pH 7.4; 200.0 µM
Answer each item with its documented solubility kinetic.

Please review the entries below; each comes with its answer.
compound | solubility kinetic
CCc1ccc(OCC(=O)Nc2ccncc2)cc1 | > 38.4 µg/mL
CC1(C)Cc2ccccc2C(/C(C#N)=N/O)=N1 | > 34.1 µg/mL
C=CCn1c(SCC(=O)Nc2ccc(C(=O)O)cc2)nc2scc(-c3ccccc3)c2c1=O | > 71.6 µg/mL
N#Cc1ccc(C(=O)CN2CCN(c3ccccc3)CC2)cc1 | 34 µg/mL
O=C(CCCOc1ccccc1)NNC(=O)c1ccncc1 | > 44.9 µg/mL
Cc1ccc(C)c(OCC(=O)O/N=C(\N)c2cccnc2)c1 | 11.2 µg/mL
COc1ccc(/C=C2\SC(=O)N(CC(=O)Nc3cccc(C)c3)C2=O)cc1O | 0.6 µg/mL
O=c1c2cc(Br)ccc2nc(-c2ccccc2)n1O | 39.4 µg/mL

Answer for every listed entry: what is its solubility kinetic? The entries follow.
1. CN(c1ccc(C(=O)NC2CCCC2)cc1)S(=O)(=O)c1ccccc1
2. Nc1cc(=O)[nH]c(SCC(=O)Nc2cc(S(=O)(=O)N3CCCCCC3)ccc2Cl)n1
3. O=C(CNC(=O)c1ccco1)Nc1ccncc1
4. Cc1ccccc1NC(=O)NCC1CCN(C(=O)OC(C)(C)C)CC1
5. O=C(Cn1cc(C(=O)C2CC2)c2ccccc21)Nc1ccccc1Cl

A:
["48.9 µg/mL", "5.4 µg/mL", "36.4 µg/mL", "> 52.1 µg/mL", "< 0.4 µg/mL"]

Answer for every listed entry: what is its solubility kinetic? The entries follow.
1. COc1ccccc1C1CCN(Cc2ccccc2)CC1
2. CN(Cc1ccccc1)C(=S)Nc1cccnc1
3. CN1CCC(NC(=S)NC2CC2)CC1
4. O=C(O)c1ccccc1C(=O)NC1CCCc2ccccc21 (stereo not given)
5. O=C(O)C(=O)O.c1cncc(CNCCc2ccc3c(c2)OCO3)c1
6. N#Cc1ccccc1NC(=O)COC(=O)c1c[nH]c2ccccc12
7. CCN(CC)c1ccc(CNCCc2ccc(F)cc2)cc1.Cl

A:
["31.1 µg/mL", "> 38.6 µg/mL", "> 32 µg/mL", "> 44.3 µg/mL", "> 52 µg/mL", "4.4 µg/mL", "> 50.5 µg/mL"]

Answer for every listed entry: what is its solubility kinetic? The entries follow.
1. Cc1ccc(/C=C/C(=O)Nc2ccc(S(N)(=O)=O)cc2)o1
2. CCOC(OCC)c1ccc(/C=C\c2nccc(N)n2)cc1
3. CC(=O)c1sc(NC(=O)c2cccs2)nc1C
4. COCc1nc2ccccc2n1Cc1ccccc1C
5. COc1cc(S(=O)(=O)N2CCOCC2)ccc1NC(=O)COC(=O)/C=C/c1cc(OC)c(OC)c(OC)c1
6. Cc1nc2ccc(NC(=O)c3cccs3)cc2s1
7. O=C(Nc1ccccc1F)c1ccc2ncsc2c1

A:
> 46 µg/mL
13.7 µg/mL
2 µg/mL
> 40 µg/mL
4.6 µg/mL
8.4 µg/mL
> 40.8 µg/mL

Answer for every listed entry: what is its solubility kinetic? The entries follow.
1. COC(=O)c1ccc(C(=O)OC)c(NC(=S)N2CCCC2)c1
2. O=C(NC1CCCCC1)C(=S)N1CCOCC1

A:
1. 9.6 µg/mL
2. > 38.5 µg/mL

###

- study_conditions: buffer; pH 7.4; 200.0 µM
Answer each item with its documented solubility kinetic.

compound | solubility kinetic
O=C(NCC(c1ccco1)N1CCCC1)c1ccc(-n2cccn2)cc1 (stereo not given) | > 52.6 µg/mL
CCOP(=O)(OCC)C(O)c1cccnc1 (stereo not given) | > 36.8 µg/mL
CN(C)CCNC(=S)Nc1ccccc1C(C)(C)C | > 41.9 µg/mL

Answer for every listed entry: what is its solubility kinetic? The entries follow.
1. CN1CCN(c2nnc(-c3ccc(F)cc3)c3ccccc23)CC1
2. C/C(CCC1CC(C)OC1=O)=N\NC(N)=S (stereo not given)

A:
["> 48.4 µg/mL", "> 36.5 µg/mL"]

###

- study_conditions: buffer; pH 7.4; 200.0 µM
Answer each item with its documented solubility kinetic.

molecule | metric | observed_result
Cc1ccc(NC(=O)CCC(=O)NNC(=O)C(C)(C)C)c(C)c1 | solubility kinetic | > 47.9 µg/mL
Cc1ccc(C(=O)Nc2ccncc2)cc1[N+](=O)[O-] | solubility kinetic | > 38.6 µg/mL
Cn1c(SCC(=O)N2CCCC2=O)nc2ccccc21 | solubility kinetic | > 43.4 µg/mL
CNC(=O)CSc1nnc(-c2ccco2)n1-c1cc(C)ccc1C | solubility kinetic | > 51.4 µg/mL
COc1ccccc1CCNC(=O)C1(C)CC1(Cl)Cl (stereo not drawn) | solubility kinetic | > 45.3 µg/mL

Answer for every listed entry: what is its solubility kinetic? The entries follow.
1. CC(C)CN(C(=O)CSc1nc(N)cc(N)n1)C1CCS(=O)(=O)C1 (stereo not drawn)
2. Cl.c1ccc2c(N3CCOCC3)c3c(nc2c1)CCC3

A:
1: > 56 µg/mL; 2: > 43.6 µg/mL

Answer for every listed entry: what is its solubility kinetic? The entries follow.
1. Cc1cc(=O)oc(C)c1C(=O)Nc1ccc(F)cc1
2. CNc1nc(=S)[nH]c2ccccc12
3. CC(C)n1c(SCC(=O)N2CCCCC2)nc2c1c(=O)n(C)c(=O)n2C
4. CC1([N+](=O)[O-])COC2(OC1)C(=O)Nc1ccccc12 (stereo not drawn)
5. CCCCn1c(N)c(N(CCOC)C(=O)CN(C)CC(=O)Nc2ccc(Cl)c(Cl)c2)c(=O)[nH]c1=O

A:
1. > 39.2 µg/mL
2. > 28.7 µg/mL
3. > 56.9 µg/mL
4. > 39.6 µg/mL
5. > 79.4 µg/mL

Q: For the molecule shown here, COc1ccc2c(c1)CC(C(=O)Nc1ccc(Cl)cc1)/C(=N/O)O2 (stereo not drawn) , give the reported solubility kinetic.
A: < 0.4 µg/mL

###

Answer each item with its documented solubility kinetic.
- study_conditions: buffer; pH 7.4; 200.0 µM

Please review the entries below; each comes with its answer.
compound | observed_result
Cc1occc1C(=O)Nc1ccccc1C#N | > 33.9 µg/mL
FC(F)(F)c1ccccc1NC(=S)N1CCCCCC1 | > 45.4 µg/mL
C=CCN(c1ccccc1)S(=O)(=O)c1c(C)[nH]c(=O)[nH]c1=O | > 48.2 µg/mL
O=c1[nH]c(/C=C/c2ccccc2)c([N+](=O)[O-])c(=O)[nH]1 | > 38.9 µg/mL
CN(C)CCCN1c2ccccc2Sc2ccccc21.Cl | > 48.1 µg/mL
O=C(OCC(=O)c1ccc[nH]1)C1=COCCO1 | > 35.6 µg/mL
COc1ccc(OC)c(C(O)C2CCCCN2)c1.Cl (configuration not stated) | > 43.2 µg/mL
CN1CCC(N(C)C(=O)COc2ccccc2Cl)CC1 | > 44.5 µg/mL

Answer for every listed entry: what is its solubility kinetic? The entries follow.
1. COC(=O)c1cn(Cc2cc(OC)ccc2OC)cc(F)c1=O
2. Cc1cc(C(=O)Nc2ccc(F)cc2)c2ccccc2n1
3. CC(=O)N1CCN(CC(=O)Nc2cc(F)ccc2C)CC1
4. O=C(NC(=S)NCc1cccnc1)c1ccccc1F

A:
1: > 48.2 µg/mL; 2: < 0.3 µg/mL; 3: > 44 µg/mL; 4: > 43.4 µg/mL
